The compounds listed here are annotated with their Activity.
System: BMDC
Assay: Vaccine adjuvant activity in Balb/c mouse BMDC assessed as increase in IL-12 production at 10 uM incubated for 20 hrs by ELISA (reference value: 1.35 +/-0.1 ng/ml)
Format: functional
Number only, in ng/mL; omit the unit.

Examples from the recorded data:
Give the reported Activity for this compound. `Cc1sc(NS(=O)(=O)c2cccc3nsnc23)c(C(=O)OCCC(C)C)c1C`
2.87

Give the reported Activity for this compound. `Cc1sc(NS(=O)(=O)c2cccc3nsnc23)c(C(=O)O)c1C`
1.43

Give the reported Activity for this compound. `CCOC(=O)c1c(NS(=O)(=O)c2cccc(N)c2N)sc(C)c1C`
1.39

***
Give the reported Activity for this compound. `CCOC(=O)c1c(NS(=O)(=O)c2ccc3nsnc3c2)sc(C)c1C`
0.63

Give the reported Activity for this compound. `CCOC(=O)c1c(C)csc1NS(=O)(=O)c1cccc2nsnc12`
1.12
